- TESTED SYSTEM: Human NaV1.7 (Homo sapiens, UniProt Q15858)
- Construct: expressed in transfected cells; host or cells: Spiking HEK cells (without Kir2.1 transfection)
- Sequence (Q15858 whole entry): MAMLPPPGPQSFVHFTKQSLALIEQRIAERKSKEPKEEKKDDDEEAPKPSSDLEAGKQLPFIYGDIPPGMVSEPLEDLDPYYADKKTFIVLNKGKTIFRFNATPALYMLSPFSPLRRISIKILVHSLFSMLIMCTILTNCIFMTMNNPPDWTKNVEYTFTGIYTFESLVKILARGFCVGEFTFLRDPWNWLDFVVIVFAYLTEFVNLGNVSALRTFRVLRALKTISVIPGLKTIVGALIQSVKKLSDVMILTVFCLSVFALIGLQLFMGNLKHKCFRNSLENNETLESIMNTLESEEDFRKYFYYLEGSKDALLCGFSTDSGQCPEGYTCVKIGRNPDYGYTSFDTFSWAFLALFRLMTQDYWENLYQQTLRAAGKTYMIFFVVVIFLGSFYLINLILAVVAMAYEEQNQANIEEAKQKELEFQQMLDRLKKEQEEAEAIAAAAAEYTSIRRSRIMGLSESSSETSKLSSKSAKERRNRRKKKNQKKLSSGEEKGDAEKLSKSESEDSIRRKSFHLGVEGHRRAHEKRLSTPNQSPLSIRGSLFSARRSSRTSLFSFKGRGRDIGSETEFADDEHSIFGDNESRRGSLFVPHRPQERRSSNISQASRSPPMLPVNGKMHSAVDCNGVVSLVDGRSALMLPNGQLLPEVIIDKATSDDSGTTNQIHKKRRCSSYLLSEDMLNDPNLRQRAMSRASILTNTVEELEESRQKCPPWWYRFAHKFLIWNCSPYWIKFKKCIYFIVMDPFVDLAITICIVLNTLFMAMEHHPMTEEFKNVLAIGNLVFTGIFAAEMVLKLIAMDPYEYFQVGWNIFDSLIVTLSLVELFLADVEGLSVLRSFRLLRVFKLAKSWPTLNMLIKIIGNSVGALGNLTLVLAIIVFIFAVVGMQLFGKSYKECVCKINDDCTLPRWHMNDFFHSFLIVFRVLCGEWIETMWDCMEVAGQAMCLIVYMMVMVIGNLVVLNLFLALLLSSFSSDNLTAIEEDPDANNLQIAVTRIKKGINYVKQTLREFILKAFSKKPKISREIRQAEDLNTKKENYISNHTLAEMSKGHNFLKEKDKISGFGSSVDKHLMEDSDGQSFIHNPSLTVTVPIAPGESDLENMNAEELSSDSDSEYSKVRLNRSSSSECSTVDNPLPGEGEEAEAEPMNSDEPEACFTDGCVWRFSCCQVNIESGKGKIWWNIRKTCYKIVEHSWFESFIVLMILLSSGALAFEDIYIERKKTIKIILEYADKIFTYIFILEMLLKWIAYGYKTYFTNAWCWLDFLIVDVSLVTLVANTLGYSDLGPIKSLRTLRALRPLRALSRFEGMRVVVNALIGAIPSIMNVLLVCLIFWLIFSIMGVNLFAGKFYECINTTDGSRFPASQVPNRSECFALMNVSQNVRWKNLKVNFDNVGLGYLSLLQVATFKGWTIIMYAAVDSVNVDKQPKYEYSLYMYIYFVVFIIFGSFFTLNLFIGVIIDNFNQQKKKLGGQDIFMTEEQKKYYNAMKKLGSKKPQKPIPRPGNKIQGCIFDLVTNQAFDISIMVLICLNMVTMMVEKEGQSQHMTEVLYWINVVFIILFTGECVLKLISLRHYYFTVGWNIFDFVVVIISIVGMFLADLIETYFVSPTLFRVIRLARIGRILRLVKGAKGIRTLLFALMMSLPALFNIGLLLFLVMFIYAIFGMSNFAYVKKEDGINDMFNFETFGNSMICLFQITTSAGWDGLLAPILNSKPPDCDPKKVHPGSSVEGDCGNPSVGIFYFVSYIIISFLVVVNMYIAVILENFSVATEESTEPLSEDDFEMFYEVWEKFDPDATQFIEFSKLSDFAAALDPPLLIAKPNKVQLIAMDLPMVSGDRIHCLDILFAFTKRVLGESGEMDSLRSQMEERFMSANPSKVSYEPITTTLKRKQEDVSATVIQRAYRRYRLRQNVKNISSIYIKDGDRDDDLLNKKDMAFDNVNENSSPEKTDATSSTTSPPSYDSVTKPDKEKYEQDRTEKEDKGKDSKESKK
- EXPERIMENT NOTES: Ionworks Barracuda (IWB) automated patch clamp assay
- Type: cell-based
- TEST CONDITIONS: human NaV1.7 in HEK cells, population patch-clamp, state- and use-dependent voltage protocol; read-out: hNaV1.7 IWB-U IC50
REPORTED ENDPOINT: IC50 (nM)
Output spec: scalar in nM, unitless text.

Q) What IC50 value was documented for this compound, COc1cc([C@@H]2C[C@H]2C)c(F)cc1-n1c(=O)ccc2cc(S(=O)(=O)Nc3ccon3)ccc21 (atropisomer, axis not shown; (P)) ?
A) 20

Q) Okay, and COc1cc([C@H]2C[C@@H]2C)c(F)cc1-n1c(=O)ccc2cc(S(=O)(=O)Nc3ccon3)ccc21 (atropisomer, axis not shown; (P)) ?
A) 16

Q) Okay, and COc1cc([C@H]2C[C@@H]2c2ccccc2)c(F)cc1-n1c(=O)ccc2cc(S(=O)(=O)Nc3ccon3)ccc21 (atropisomer, axis not shown; (P)) ?
A) 4

Q) Okay, and COc1cc([C@@H]2C[C@H]2C(F)(F)F)c(F)cc1-n1c(=O)ccc2cc(S(=O)(=O)Nc3cccnn3)ccc21 (atropisomer, axis not shown; (P)) ?
A) 19

Q) Okay, and COc1cc(C2(C(F)(F)F)CC2)c(F)cc1-n1c(=O)ccc2cc(S(=O)(=O)Nc3ccon3)ccc21 (single isomer, unassigned) [Example 43] ?
A) 1630

Provenance of the data: patent US20230234948A1
